biological target: T1, MMP9 catalytic domain (UniProt P14780 107-444); experiment: enzyme activity (inhibition) assay with a fluorogenic substrate; various concentrations of N-TIMP2 pre-incubated 1 hour with MMP9 (0.2 nM) or MMP14 (0.5 nM) in 50 mM Tris-HCl, 0.15 M NaCl, 10 mM CaCl2, 0.02% Brij 35, pH 7.5, 37°C; fraction of enzyme activity fitted to a 1:1 binding model to give Kd; details: both partners purified
T1 construct: Matrix Metalloproteinase 9 (MMP9), catalytic domain; source: expressed recombinantly and purified as published before [12]
T1 sequence (P14780 107-444): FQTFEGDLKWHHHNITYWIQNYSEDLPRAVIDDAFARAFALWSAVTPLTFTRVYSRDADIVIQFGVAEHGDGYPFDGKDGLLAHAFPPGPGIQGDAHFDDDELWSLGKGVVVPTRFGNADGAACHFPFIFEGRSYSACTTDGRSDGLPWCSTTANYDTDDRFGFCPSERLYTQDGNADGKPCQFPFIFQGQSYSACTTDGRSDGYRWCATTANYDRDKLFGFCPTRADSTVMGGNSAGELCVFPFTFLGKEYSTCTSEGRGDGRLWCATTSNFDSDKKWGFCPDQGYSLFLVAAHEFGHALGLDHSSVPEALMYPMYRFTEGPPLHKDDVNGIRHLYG
recorded-endpoint: pKd
# pKd = -log10(concentration in molar units)

# annotated cases, reported pKd shown
N-TIMP2 V6R (domain or fragment, human, UniProt P16035 27-153, looked up, TIMP2, human, N-terminal domain, residues 1-127; also called V06R) CSCSPRHPQQAFCNADVVIRAKAVSEKEVDSGNDIYGNPIKRIQYEIKQIKMFKGPEKDIEFIYTAPSSAVCGVSLDVGGKKEYLIAGKAEGDGKMHITLCDFIVPWDTLSTTQKKSLNHRYQMGCE
9.30
N-TIMP2 T99Y (domain or fragment, human, UniProt P16035 27-153, looked up, TIMP2, human, N-terminal domain, residues 1-127) CSCSPVHPQQAFCNADVVIRAKAVSEKEVDSGNDIYGNPIKRIQYEIKQIKMFKGPEKDIEFIYTAPSSAVCGVSLDVGGKKEYLIAGKAEGDGKMHIYLCDFIVPWDTLSTTQKKSLNHRYQMGCE
8.96
N-TIMP2 S4A (domain or fragment, human, UniProt P16035 27-153, looked up, TIMP2, human, N-terminal domain, residues 1-127) CSCAPVHPQQAFCNADVVIRAKAVSEKEVDSGNDIYGNPIKRIQYEIKQIKMFKGPEKDIEFIYTAPSSAVCGVSLDVGGKKEYLIAGKAEGDGKMHITLCDFIVPWDTLSTTQKKSLNHRYQMGCE
9.07
N-TIMP2 V71N (domain or fragment, human, UniProt P16035 27-153, looked up, TIMP2, human, N-terminal domain, residues 1-127) CSCSPVHPQQAFCNADVVIRAKAVSEKEVDSGNDIYGNPIKRIQYEIKQIKMFKGPEKDIEFIYTAPSSANCGVSLDVGGKKEYLIAGKAEGDGKMHITLCDFIVPWDTLSTTQKKSLNHRYQMGCE
8.33
N-TIMP2 I35K (domain or fragment, human, UniProt P16035 27-153, looked up, TIMP2, human, N-terminal domain, residues 1-127) CSCSPVHPQQAFCNADVVIRAKAVSEKEVDSGNDKYGNPIKRIQYEIKQIKMFKGPEKDIEFIYTAPSSAVCGVSLDVGGKKEYLIAGKAEGDGKMHITLCDFIVPWDTLSTTQKKSLNHRYQMGCE
9.24

For record N-TIMP2 S4E (domain or fragment, human, UniProt P16035 27-153, looked up, TIMP2, human, N-terminal domain, residues 1-127; also called S04E) CSCEPVHPQQAFCNADVVIRAKAVSEKEVDSGNDIYGNPIKRIQYEIKQIKMFKGPEKDIEFIYTAPSSAVCGVSLDVGGKKEYLIAGKAEGDGKMHITLCDFIVPWDTLSTTQKKSLNHRYQMGCE the listed pKd is 7.81

For record N-TIMP2 S4Q (domain or fragment, human, UniProt P16035 27-153, looked up, TIMP2, human, N-terminal domain, residues 1-127; also called S04Q) CSCQPVHPQQAFCNADVVIRAKAVSEKEVDSGNDIYGNPIKRIQYEIKQIKMFKGPEKDIEFIYTAPSSAVCGVSLDVGGKKEYLIAGKAEGDGKMHITLCDFIVPWDTLSTTQKKSLNHRYQMGCE the listed pKd is 8.86

For record N-TIMP2 S4R (domain or fragment, human, UniProt P16035 27-153, looked up, TIMP2, human, N-terminal domain, residues 1-127; also called S04R) CSCRPVHPQQAFCNADVVIRAKAVSEKEVDSGNDIYGNPIKRIQYEIKQIKMFKGPEKDIEFIYTAPSSAVCGVSLDVGGKKEYLIAGKAEGDGKMHITLCDFIVPWDTLSTTQKKSLNHRYQMGCE the listed pKd is 9.26
